- Protocol details: Dissociation of chelates in aq. 6.0M HCl at 80° C. (acid decomplexation kinetic inertness) (Chart 17)
- Format: physicochemical
- Reported conditions: 1 month
Property name: fraction of intact chelate (%)
Number in %, nothing else.

Compound	Units	fraction of intact chelate
O=C1C[N@@]2CC[N@]3CC[N@@](CC[N@](CC2)Cc2cccc(n2)-c2cn(nn2)Cc2cc(-c4ccccc4)cc(n2)C3)CC(=O)[O][Gd][O]1 [TD875]	%	0

Can you share its fraction of intact chelate? I mean this compound: O=P1(c2ccccc2)C[N@@]2CC[N@]3CC[N@@](CC[N@](CC2)Cc2cccc(n2)-c2cnnn2Cc2cccc(n2)C3)CP(=O)(c2ccccc2)[O][Gd][O]1 (stereo partly drawn) [TD925]
0

Entry NCc1nnn2c1-c1cccc(n1)C[N@]1CC[N@]3CC[N@@](CC[N@@](CC1)CC(=O)[O][Lu][O]C(=O)C3)Cc1cc(-c3ccccc3)cc(n1)C2 [TD735] please
98

* * *

- Protocol details: Formation of 1,5-cz-[M(Lig)] from Lig and M^III ions (metal dependent click-zip) (Charts 4, 5)
- Type: physicochemical
- Reported conditions: 1 hour at 80° C.; MOPS/NaOH buffer pH 7.0; TD728, TD827 in 50% i-PrOH; TD714 sum of two diastereoisomers
Property name: conversion to 1,5-cz-[M(Lig)], Y^III (%)
Number in %, nothing else.

> print(dat)
                            compound.smiles                         property.name  value.observed
1  C#Cc1cccc(CN2CCN(CC(=O)O)CCN(Cc3cc(N(C)C)cc(CN=[N+]=[N-])n3)CCN(CC(=O)O)CC2)n1  conversion to 1,5-cz-[M(Lig)], Y^III              30

Can you share its conversion to 1,5-cz-[M(Lig)], Y^III? I mean this molecule: C#Cc1cccc(CN2CCN(CC(=O)O)CCN(Cc3cc(C(F)(F)F)cc(CN=[N+]=[N-])n3)CCN(CC(=O)O)CC2)n1
20

Entry C#Cc1cccc(CN2CCN(CC(N)=O)CCN(Cc3cc(-c4ccccc4)cc(CN=[N+]=[N-])n3)CCN(CC(N)=O)CC2)n1 please
4

* * *

- Protocol details: Formation of 1,5-cz-[Ln(Lig)] from Lig and Ln^III ions (metal dependent click-zip), MOPS/NaOH buffer pH 7.0, analytical HPLC (Charts 1, 2)
- Reported conditions: Lu^III; after 1 hour at 80° C.; MOPS/NaOH buffer pH 7.0
The threshold is 1%. Values of conversion to 1,5-cz-[Ln(Lig)], Lu^III beneath it are tagged 1 (yes); values meeting or exceeding it are tagged 0 (no).

// known answers, use as guide
> print(dat)
                            compound.smiles  group.label
1  [N-]=[N+]=NCc1cccc(CN2CCN(CC(=O)O)CCN(Cc3cccc(C#Cc4ccccc4)n3)CCN(CC(=O)O)CC2)n1       0 (no)
2  C#Cc1cccc(CN2CCN(CCC(=O)O)CCN(Cc3cccc(CN=[N+]=[N-])n3)CCN(CCC(=O)O)CC2)n1      1 (yes)
3  C#Cc1cccc(CN2CCN(CC(=O)O)CCN(Cc3cc(C(=O)OC(C)C)cc(CN=[N+]=[N-])n3)CCN(CC(=O)O)CC2)n1       0 (no)
4  [N-]=[N+]=NCc1cccc(CN2CCN(CC(=O)O)CCN(Cc3cccc(C#CI)n3)CCN(CC(=O)O)CC2)n1       0 (no)

Then there is this compound:
I wonder whether C#Cc1cccc(CN2CCN(CP(=O)(O)OCC)CCN(Cc3cccc(CN=[N+]=[N-])n3)CCN(CP(=O)(O)OCC)CC2)n1 has conversion to 1,5-cz-[Ln(Lig)], Lu^III below 1%. Can you tell?
0 (no)
